Target or test system: KRAS G12C (GMPPNP-loaded, Cys-light, amino acids 1-169) and cRAF Ras-binding domain interaction (Homo sapiens, UniProt P01116, C118S/C51S/C80L/G12C)
Construct: truncated version comprising amino acids 1-169
Sequence (P01116 1-169 isoform P01116-2 G12C/C51S/C80L/C118S): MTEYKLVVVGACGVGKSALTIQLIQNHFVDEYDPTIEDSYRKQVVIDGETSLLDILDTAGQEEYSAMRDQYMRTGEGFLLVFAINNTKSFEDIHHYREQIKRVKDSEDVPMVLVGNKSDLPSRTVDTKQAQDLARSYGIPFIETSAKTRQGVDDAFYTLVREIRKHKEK
Assay info: Inhibition of KRAS G12C and cRAF binding (AlphaScreen)
Assay setup: KRAS G12C preloaded with GMPPNP, 2 hours compound incubation, room temperature
Recorded IC50 values for a group of compounds are listed next.

* Cc1cc(/C=C(\F)C(=O)N2CCN(c3nc(OC[C@@]45CCCN4C[C@H](F)C5)nc4c(F)c(-c5cccc6cccc(F)c56)ncc34)C[C@@H]2CC#N)nc(C)n1 | < 0.01 µM
* C#Cc1c(F)ccc2cccc(-c3ncc4c(N5CCN(C(=O)/C(F)=C/c6cc(C)nc(C)n6)[C@@H](CC#N)C5)nc(OC[C@@]56CCCN5C[C@H](F)C6)nc4c3F)c12 | < 0.01 µM

Kindly indicate its recorded IC50. Item: N#CC[C@H]1CN(c2nc(OC[C@@]34CCCN3C[C@H](F)C4)nc3c(F)c(-c4cccc5ccc(F)c(Cl)c45)ncc23)CCN1C(=O)/C(F)=C\c1ccnc(C2CC2)n1
0.01 to 0.1 µM

Name the recorded IC50 of the item Cc1nccc(/C=C(\F)C(=O)N2CC[C@@H](N(C)c3nc(OC[C@@]45CCCN4C[C@H](F)C5)nc4c(F)c(-c5cccc(Cl)c5C(F)(F)F)ncc34)C2)n1 in your answer.
< 0.01 µM

Report IC50 for Cc1nccc(/C=C(\F)C(=O)N2CC[C@@H](N(C)c3nc(OC[C@@]45CCCN4C[C@H](F)C5)nc4c(F)c(-c5cccc6cccc(Cl)c56)ncc34)C2)n1
< 0.01 µM

Entry Cc1cc(/C=C(\F)C(=O)N2CCN(c3nc(OC[C@@]45CCCN4C[C@H](F)C5)nc4c(F)c(-c5cccc6ccc(F)c(F)c56)ncc34)C[C@@H]2CC#N)nc(C)n1 needs its IC50 filled in; supply it.
< 0.01 µM

State its IC50: C#Cc1c(F)ccc2cccc(-c3ncc4c(N5CCN(C(=O)/C(F)=C/c6cc(C)nc(C)n6)[C@@H](CC#N)C5)nc(OC)nc4c3F)c12
0.1 to 0.5 µM

---

Target or test system: KRAS G12C (GMPPNP-loaded, Cys-light, amino acids 1-169) and cRAF Ras-binding domain interaction (Homo sapiens, UniProt P01116, C118S/C51S/C80L/G12C)
Construct: truncated version comprising amino acids 1-169
Assay info: Inhibition of KRAS G12C and cRAF binding (AlphaScreen)
Assay setup: KRAS G12C preloaded with GMPPNP, 2 hours compound incubation, room temperature
pIC50: −log10 of the molar value.
Measured attribute: pIC50

- CC(C)c1noc(/C=C(\F)C(=O)N2CCN(c3nc(OCC45CCCN4CCC5)nc4c(F)c(-c5cccc6cccc(Cl)c56)ncc34)C[C@@H]2CC#N)n1: > 8.00
- Cc1cc(/C=C(\F)C(=O)N2CCN(c3nc(C)nc4c(F)c(-c5cc(O)cc(Cl)c5C5CC5)ncc34)C[C@@H]2CC#N)nc(C)n1: > 8.00

The record that follows has no pIC50 shown yet.
State, in one line, measured pIC50 of Cc1cc(/C=C(\F)C(=O)N2CC[C@@H](N(C)c3nc(OC[C@@]45CCCN4C[C@H](F)C5)nc4c(F)c(-c5cccc(Cl)c5C(F)(F)F)ncc34)C2)nc(C)n1
> 8.00
